Assay: Pharmacokinetic profile of linagliptin (general statement)
Conditions: in vivo
PARAMETER_MEASURED: half-life

| COMPOUND | RESULT |
| --- | --- |
| CC#CCn1c(N2CCC[C@@H](N)C2)nc2c1c(=O)n(Cc1nc(C)c3ccccc3n1)c(=O)n2C [BI 1356] | ≤ 72 h |
